The measurements presented in this section are drawn from PubChem BioAssay AID2060896.

# Test system: 941728-121-R-J1-PDC complex spheroid viability;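 further: spheroids exposed to compounds for 7 days before readout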
# measurement-notes: Anticancer human tumor 941728-121-R-J1-PDC patient-derived lung adenocarcinoma cell line growth inhibition [RAS]
# study-conditions: curve of first compound; second compound 0.003 µM
readout-name: IC50

Exercise: Reported IC50 for C[C@@H](NC(=O)c1ncnc(N)c1Cl)c1ncc(C(=O)Nc2cc(C(F)(F)F)c(Cl)cn2)s1 + CCn1c(-c2cc(N3CCN(C)CC3)cnc2C(C)OC)c2c3cc(ccc31)-c1csc(n1)CC(NC(=O)C1CC1C)C(=O)N1CCCC(N1)C(=O)OCC(C)(C)C2 : what is it?
Solution: < 31.6 nM

Exercise: Reported IC50 for NC1c2ccccc2OC12CCN(c1cnc3c(N4CCCc5ncccc54)n[nH]c3n1)CC2 (configuration not stated) + CCn1c(-c2cccnc2C(C)OC)c2c3cc(ccc31)N1CCOC(CC(NC(=O)C(C(C)C)N(C)C(=O)C3(F)CCN(C(=O)C#CC(C)(C)N(C)C)CC3)C(=O)N3CCCC(N3)C(=O)OCC(C)(C)C2)C1 : what is it?
Solution: < 31.6 nM

Exercise: Reported IC50 for CCc1c2c(nc3ccc(O)cc13)-c1cc3c(c(=O)n1C2)COC(=O)[C@]3(O)CC + CCn1c(-c2cccnc2C(C)OC)c2c3cc(ccc31)N1CCOC(CC(NC(=O)C(C(C)C)N(C)C(=O)C3(F)CCN(C(=O)C#CC(C)(C)N(C)C)CC3)C(=O)N3CCCC(N3)C(=O)OCC(C)(C)C2)C1 : what is it?
Solution: < 0.949 nM

Exercise: Reported IC50 for CCN1CCN(Cc2ccc(Nc3ncc(F)c(-c4cc(F)c5nc(C)n(C(C)C)c5c4)n3)nc2)CC1 + CCn1c(-c2cccnc2C(C)OC)c2c3cc(ccc31)N1CCOC(CC(NC(=O)C(C(C)C)N(C)C(=O)C3(F)CCN(C(=O)C#CC(C)(C)N(C)C)CC3)C(=O)N3CCCC(N3)C(=O)OCC(C)(C)C2)C1 : what is it?
Solution: < 3.16 nM

Exercise: Reported IC50 for O=C(c1ccc(F)c(F)c1Nc1ccc(I)cc1F)N1CC(O)([C@@H]2CCCCN2)C1 + CCn1c(-c2cccnc2C(C)OC)c2c3cc(ccc31)N1CCOC(CC(NC(=O)C(C(C)C)N(C)C(=O)C3(F)CCN(C(=O)C#CC(C)(C)N(C)C)CC3)C(=O)N3CCCC(N3)C(=O)OCC(C)(C)C2)C1 : what is it?
Solution: 21.9 nM

Exercise: Reported IC50 for CC(=O)OC12COC1CC(O)C1(C)C(=O)C(O)C3=C(C)C(OC(=O)C(O)C(NC(=O)OC(C)(C)C)c4ccccc4)CC(O)(C(OC(=O)c4ccccc4)C21)C3(C)C (configuration not stated) + CCn1c(-c2cc(N3CCN(C)CC3)cnc2C(C)OC)c2c3cc(ccc31)-c1csc(n1)CC(NC(=O)C1CC1C)C(=O)N1CCCC(N1)C(=O)OCC(C)(C)C2 : what is it?
Solution: < 31.6 nM

Exercise: Reported IC50 for CC(=O)OC12COC1CC(O)C1(C)C(=O)C(O)C3=C(C)C(OC(=O)C(O)C(NC(=O)OC(C)(C)C)c4ccccc4)CC(O)(C(OC(=O)c4ccccc4)C21)C3(C)C (configuration not stated) + CCn1c(-c2cccnc2C(C)OC)c2c3cc(ccc31)N1CCOC(CC(NC(=O)C(C(C)C)N(C)C(=O)C3(F)CCN(C(=O)C#CC(C)(C)N(C)C)CC3)C(=O)N3CCCC(N3)C(=O)OCC(C)(C)C2)C1 : what is it?
Solution: < 31.6 nM
